# SYSTEM_UNDER_TEST: NanoLuc (Oplophorus gracilirostris, UniProt Q9GV45, A31E/A60N/A81I/F95D/I117V/K70R/L54V/L99Q/M102K/N193R/P142E/Q151K/Q38R/Q45L/V71I/Y165I)
# Sequence (Q9GV45 28-196 with tags or gaps with the stated changes limits assumed): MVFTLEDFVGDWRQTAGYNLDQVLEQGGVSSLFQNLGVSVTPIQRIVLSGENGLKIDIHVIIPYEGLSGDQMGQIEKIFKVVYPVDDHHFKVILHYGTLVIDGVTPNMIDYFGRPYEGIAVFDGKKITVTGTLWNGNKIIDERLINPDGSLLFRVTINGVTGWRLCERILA
# EXPERIMENT_NOTES: Suicide inhibition: displacement of inhibitor by furimazine upon dilution (FIG. 7)
# EXPERIMENTAL_CONDITIONS: 10 μM Nluc + 10 μM inhibitor 30 minutes at RT, diluted to 10 pM, furimazine 10 uM
TEST_READOUT: displacement of inhibitor by furimazine upon dilution

CCc1cccc(N(CC)C(=O)Cn2c(C(=O)N[C@H]3CC[C@H](C(=O)NCCCCCCNC(=O)c4ccc5c(c4)C(=O)OC54c5ccc(OC(C)=O)cc5Oc5cc(OC(C)=O)ccc54)CC3)cc3ccccc32)c1 = slower
CCc1cccc(N(CC)C(=O)Cn2c(C(=O)N[C@H]3CC[C@H](C(=O)NCCCCCC(=O)Oc4ccccc4)CC3)cc3ccccc32)c1 = slower
CCN(C(=O)Cn1c(C(=O)N[C@H]2CC[C@H](C(=O)NCCCCCCCC(=O)ON3C(=O)CCC3=O)CC2)cc2sccc21)c1cccc(C)c1 = not displaced
CCc1cccc(N(CC)C(=O)Cn2c(C(=O)N[C@H]3CC[C@H](C(=O)NCCCCCC(=O)OC)CC3)cc3ccccc32)c1 = slower
CCc1cccc(N(CC)C(=O)Cn2c(C(=O)N[C@H]3CC[C@H](C(=O)NCCCCCCCC(=O)ON4C(=O)CCC4=O)CC3)cc3ccccc32)c1 = not displaced
CCc1cccc(N(CC)C(=O)Cn2c(C(=O)N[C@H]3CC[C@H](C(=O)NCCCCCC(=O)ON4C(=O)CCC4=O)CC3)cc3ccccc32)c1 = slower
